These entries and their values trace back to PubChem BioAssay (EPA / NIEHS).

ASSAYED TARGET: human Matrix Metalloproteinase-9 (MMP9), MMP9 (gene 4318)
METHOD DESCRIPTION: NVS_ENZ_hMMP9: NovaScreen (NVS) Enzymatic Assay for human Matrix Metalloproteinase-9 (MMP9) (AID 2283190);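 note: cell-free recombinant MMP9 protease activity read by fluorescent substrate signal; active means inhibition seen as loss of fluorescence signal versus DMSO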
Protocol: NVS_ENZ_hMMP9 is a biochemical, single-readout assay that uses extracted gene-proteins in a cell-free assay. Measurements were taken 1 hour after chemical dosing in a 96-well plate.NVS_ENZ_hMMP9 is one of one assay component(s) measured or calculated from the NVS_ENZ_hMMP9 assay. […] This assay endpoint, NVS_ENZ_hMMP9, was analyzed in the positive analysis fitting direction relative to DMSO as the negative control and baseline of activity. […]
Inconclusive results are not listed. Active and inactive are the calls of the source. Rule for the calls: active = hit-call score of the fitted dose curve at least 0.9, where 1 is the maximum; inconclusive = response in the unintended direction; inactive = score below 0.9.
Outcome field: choose from active, inactive

// below: answered compounds
In [3]: df
Out[3]:
                                   compound  category_label
0  Fc1ccccc1[C@@H](F)COC1CCC(Nc2ncnc3[nH]ncc23)CC1 (stereo partly drawn)        inactive
1  CCc1cc(SCc2sc(-c3ccc(C(F)(F)F)cc3)nc2CN2CCN(c3ccc(OC)cc3)CC2)ccc1OCC(=O)O          active
2  CCCCC(CC)COC(=O)c1ccc(C(=O)OCC(CC)CCCC)cc1 (stereo not drawn)        inactive
3                              COCCOCCOCCOC        inactive
4                           COC(=O)CC(=O)OC        inactive
5                                  NC(=O)NO        inactive
6  CNS(=O)(=O)c1cc(C(=O)N2CCC(CCN3C4CCC3CC(n3c(C)nc5ccccc53)C4)(c3cccc(F)c3)CC2)c(Cl)cc1F (stereo not drawn)          active

From here, focus on the item given below.
IN: Test call, this compound: CCOC(=O)c1ccc(C2CCC(NC[C@H](O)COc3ccc(O)c(NS(C)(=O)=O)c3)CC2)cc1 (stereo partly drawn)
OUT: active

* * *

ASSAYED TARGET: Retinoic acid receptor RXR-alpha (Homo sapiens) (UniProt P19793)
Sequence (P19793 whole entry, looked up): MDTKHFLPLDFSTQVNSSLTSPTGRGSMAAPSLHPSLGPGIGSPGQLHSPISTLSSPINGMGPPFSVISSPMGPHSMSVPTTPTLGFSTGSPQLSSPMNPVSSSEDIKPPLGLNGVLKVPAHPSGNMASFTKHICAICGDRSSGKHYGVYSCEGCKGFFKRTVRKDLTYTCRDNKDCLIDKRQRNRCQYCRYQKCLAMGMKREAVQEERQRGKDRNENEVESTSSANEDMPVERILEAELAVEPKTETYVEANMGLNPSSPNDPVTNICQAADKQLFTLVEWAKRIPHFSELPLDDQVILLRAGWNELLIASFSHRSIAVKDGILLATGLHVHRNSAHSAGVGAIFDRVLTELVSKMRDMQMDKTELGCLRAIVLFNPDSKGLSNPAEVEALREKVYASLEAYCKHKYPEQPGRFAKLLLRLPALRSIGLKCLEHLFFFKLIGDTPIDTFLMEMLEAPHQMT
METHOD DESCRIPTION: OT_NURR1_NURR1RXRa_1440: Odyssey Thera (OT) 24-hour HEK293T Protein Complementation Assay for Nurr1/retinoid X receptor (RXR) (AID 2283386)
Records with an inconclusive call do not appear. Calls of active or inactive are those of the source. The calls were made as follows: active = hit-call score of the fitted dose curve at least 0.9, where 1 is the maximum; inconclusive = response in the unintended direction; inactive = score below 0.9.
Outcome field: choose from true (1) for active, false (0) for inactive

MOLECULE	ASSAYED TARGET	CATEGORY LABEL
CC(C)CCO	Retinoic acid receptor RXR-alpha (Homo sapiens) (UniProt P19793)	false (0)

IN: Test call, this molecule: CC[C@H](C)C(=O)O[C@H]1C[C@@H](C)C=C2C=C[C@H](C)[C@H](CC[C@@H]3C[C@@H](O)CC(=O)O3)[C@H]21
OUT: false (0)

IN: Test call, this molecule: O=C(OC[C@H]1O[C@@H](OC(=O)c2cc(O)c(O)c(OC(=O)c3cc(O)c(O)c(O)c3)c2)[C@H](OC(=O)c2cc(O)c(O)c(OC(=O)c3cc(O)c(O)c(O)c3)c2)[C@@H](OC(=O)c2cc(O)c(O)c(OC(=O)c3cc(O)c(O)c(O)c3)c2)[C@@H]1OC(=O)c1cc(O)c(O)c(OC(=O)c2cc(O)c(O)c(O)c2)c1)c1cc(O)c(O)c(OC(=O)c2cc(O)c(O)c(O)c2)c1
OUT: true (1)

IN: Test call, this molecule: CCCCC(CC)COC(=O)CCCCCCCCC(=O)OCC(CC)CCCC (centres undefined)
OUT: false (0)
